Origin of the recorded values: ChEMBL document CHEMBL5247625

# study.system: Protein cereblon/Tyrosine-protein kinase ABL1/Breakpoint cluster region protein (Homo sapiens, UniProt P00519+P11274+Q96SW2)
# Sequence (P00519 whole entry, looked up): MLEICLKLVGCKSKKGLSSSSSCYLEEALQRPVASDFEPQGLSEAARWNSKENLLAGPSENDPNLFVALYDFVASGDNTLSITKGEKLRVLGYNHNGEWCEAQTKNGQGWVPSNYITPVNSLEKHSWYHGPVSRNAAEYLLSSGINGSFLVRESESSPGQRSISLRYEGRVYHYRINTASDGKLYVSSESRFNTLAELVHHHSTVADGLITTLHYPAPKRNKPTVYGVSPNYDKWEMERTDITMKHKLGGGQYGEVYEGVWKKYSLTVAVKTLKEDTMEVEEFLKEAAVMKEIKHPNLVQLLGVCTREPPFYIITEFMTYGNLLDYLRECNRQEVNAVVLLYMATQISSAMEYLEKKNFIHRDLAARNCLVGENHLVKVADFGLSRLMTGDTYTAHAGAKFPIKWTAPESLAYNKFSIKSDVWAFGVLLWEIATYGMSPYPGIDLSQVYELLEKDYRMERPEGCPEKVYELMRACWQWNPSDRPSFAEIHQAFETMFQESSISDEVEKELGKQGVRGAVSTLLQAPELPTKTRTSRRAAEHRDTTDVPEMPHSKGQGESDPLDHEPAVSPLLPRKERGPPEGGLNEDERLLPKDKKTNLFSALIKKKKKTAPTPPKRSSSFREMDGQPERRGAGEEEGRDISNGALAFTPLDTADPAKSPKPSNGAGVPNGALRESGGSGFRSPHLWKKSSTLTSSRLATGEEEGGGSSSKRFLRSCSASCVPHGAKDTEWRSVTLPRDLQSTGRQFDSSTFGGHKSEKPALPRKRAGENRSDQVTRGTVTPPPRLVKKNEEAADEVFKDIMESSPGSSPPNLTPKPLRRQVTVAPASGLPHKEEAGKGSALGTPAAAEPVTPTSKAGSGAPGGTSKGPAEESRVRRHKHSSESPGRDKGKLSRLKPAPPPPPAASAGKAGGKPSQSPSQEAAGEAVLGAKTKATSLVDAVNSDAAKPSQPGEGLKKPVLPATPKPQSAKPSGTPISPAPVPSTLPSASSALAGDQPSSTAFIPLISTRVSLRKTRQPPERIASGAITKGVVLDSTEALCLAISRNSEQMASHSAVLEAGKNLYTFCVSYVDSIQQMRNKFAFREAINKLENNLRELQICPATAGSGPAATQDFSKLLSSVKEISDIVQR
# Sequence (P11274 whole entry, looked up): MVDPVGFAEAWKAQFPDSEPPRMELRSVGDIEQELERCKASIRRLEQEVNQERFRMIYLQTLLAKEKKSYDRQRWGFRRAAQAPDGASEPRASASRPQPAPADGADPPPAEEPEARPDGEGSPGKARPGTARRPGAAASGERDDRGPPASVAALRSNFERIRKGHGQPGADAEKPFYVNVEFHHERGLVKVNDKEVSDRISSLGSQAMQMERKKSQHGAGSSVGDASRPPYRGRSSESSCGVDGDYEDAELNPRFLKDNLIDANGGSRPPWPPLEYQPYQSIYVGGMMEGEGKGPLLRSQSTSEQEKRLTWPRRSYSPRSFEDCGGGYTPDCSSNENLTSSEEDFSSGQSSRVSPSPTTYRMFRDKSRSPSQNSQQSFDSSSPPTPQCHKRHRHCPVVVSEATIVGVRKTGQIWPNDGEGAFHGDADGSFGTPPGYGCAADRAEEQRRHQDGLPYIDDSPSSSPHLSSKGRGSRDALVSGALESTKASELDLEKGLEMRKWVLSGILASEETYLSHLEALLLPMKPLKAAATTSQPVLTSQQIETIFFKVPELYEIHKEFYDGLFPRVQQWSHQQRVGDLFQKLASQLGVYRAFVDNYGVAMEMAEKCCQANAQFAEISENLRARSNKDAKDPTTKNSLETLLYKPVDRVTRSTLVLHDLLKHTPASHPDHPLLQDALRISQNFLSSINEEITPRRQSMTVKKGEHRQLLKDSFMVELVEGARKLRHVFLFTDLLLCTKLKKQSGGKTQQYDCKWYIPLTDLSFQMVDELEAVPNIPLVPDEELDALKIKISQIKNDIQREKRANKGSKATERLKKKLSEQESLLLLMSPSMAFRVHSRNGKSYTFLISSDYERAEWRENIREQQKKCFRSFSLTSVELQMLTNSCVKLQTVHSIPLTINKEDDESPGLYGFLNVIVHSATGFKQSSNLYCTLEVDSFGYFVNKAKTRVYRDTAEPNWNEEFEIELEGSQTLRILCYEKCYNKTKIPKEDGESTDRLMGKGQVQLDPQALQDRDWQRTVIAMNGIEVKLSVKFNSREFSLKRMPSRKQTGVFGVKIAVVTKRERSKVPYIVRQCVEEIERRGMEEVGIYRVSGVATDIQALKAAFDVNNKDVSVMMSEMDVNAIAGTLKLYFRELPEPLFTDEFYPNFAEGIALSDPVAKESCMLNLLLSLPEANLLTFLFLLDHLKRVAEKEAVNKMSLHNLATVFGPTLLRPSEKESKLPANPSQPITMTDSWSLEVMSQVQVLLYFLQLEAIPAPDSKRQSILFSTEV
# Sequence (Q96SW2 whole entry, looked up): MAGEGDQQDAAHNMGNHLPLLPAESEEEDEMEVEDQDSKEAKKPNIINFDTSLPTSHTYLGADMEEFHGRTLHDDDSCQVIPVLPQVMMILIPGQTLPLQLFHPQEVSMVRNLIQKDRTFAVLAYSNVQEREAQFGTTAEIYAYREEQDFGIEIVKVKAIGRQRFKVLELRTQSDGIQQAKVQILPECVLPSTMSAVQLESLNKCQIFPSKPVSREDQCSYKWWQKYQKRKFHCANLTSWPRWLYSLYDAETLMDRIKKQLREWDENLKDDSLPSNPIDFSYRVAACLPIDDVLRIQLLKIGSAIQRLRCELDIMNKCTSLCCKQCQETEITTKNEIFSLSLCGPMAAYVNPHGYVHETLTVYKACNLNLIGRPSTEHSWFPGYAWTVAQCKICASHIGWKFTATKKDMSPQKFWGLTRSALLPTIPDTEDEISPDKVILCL
# assay.method.text: Protac activity at CRBN/BCR-ABL in human K562 cells assessed as increase in BCR-ABL degradation at 50 nM by Western blotting analysis
# Format: cell-based
measured.quantity: Activity (%)
Provide the reading as a plain figure in %.

Q: Entry under review: O=C1CCC(N2C(=O)c3cccc(SCCCC(=O)N4CCN(c5ncc(C(=O)Nc6ccc(OC(F)(F)Cl)cc6)cc5-c5ccn[nH]5)CC4)c3C2=O)C(=O)N1 (centres undefined) . Reported Activity?
Result: 9.57

Continuing:
Q: Entry under review: O=C1CCC(N2Cc3c(NCCCC(=O)N4CCN(c5ncc(C(=O)Nc6ccc(OC(F)(F)Cl)cc6)cc5-c5ccn[nH]5)CC4)cccc3C2=O)C(=O)N1 (centres undefined) . Reported Activity?
Result: -2.33

Q: Entry under review: O=C1CCC(N2C(=O)c3cccc(OCCCC(=O)N4CCN(c5ncc(C(=O)Nc6ccc(OC(F)(F)Cl)cc6)cc5-c5ccn[nH]5)CC4)c3C2=O)C(=O)N1 (centres undefined) . Reported Activity?
Result: -1.35

Q: Entry under review: O=C1CCC(N2Cc3c(SCCCC(=O)N4CCN(c5ncc(C(=O)Nc6ccc(OC(F)(F)Cl)cc6)cc5-c5ccn[nH]5)CC4)cccc3C2=O)C(=O)N1 (centres undefined) . Reported Activity?
Result: 35.1

Q: Entry under review: O=C1CCC(N2Cc3c(OCCCC(=O)N4CCN(c5ncc(C(=O)Nc6ccc(OC(F)(F)Cl)cc6)cc5-c5ccn[nH]5)CC4)cccc3C2=O)C(=O)N1 (centres undefined) . Reported Activity?
Result: -12.3

Q: Entry under review: O=C1CCC(N2C(=O)c3cccc(NCCCC(=O)N4CCN(c5ncc(C(=O)Nc6ccc(OC(F)(F)Cl)cc6)cc5-c5ccn[nH]5)CC4)c3C2=O)C(=O)N1 (centres undefined) . Reported Activity?
Result: 9.05

Q: Entry under review: O=C1CCC(N2C(=O)c3cccc(NCC(=O)N4CCN(c5ncc(C(=O)Nc6ccc(OC(F)(F)Cl)cc6)cc5-c5ccn[nH]5)CC4)c3C2=O)C(=O)N1 (centres undefined) . Reported Activity?
Result: 1.82

Q: Entry under review: O=C1CCC(N2C(=O)c3cccc(C#CCCCC(=O)N4CCN(c5ncc(C(=O)Nc6ccc(OC(F)(F)Cl)cc6)cc5-c5ccn[nH]5)CC4)c3C2=O)C(=O)N1 (centres undefined) . Reported Activity?
Result: 9.65

----------
Property: Activity; scope: individual molecules
# study.system: Protein cereblon/Tyrosine-protein kinase ABL1/Breakpoint cluster region protein (Homo sapiens, UniProt P00519+P11274+Q96SW2)
# assay.method.text: Protac activity at CRBN/BCR-ABL in human K562 cells assessed as increase in BCR-ABL degradation at 100 nM by Western blotting analysis
# Type: cell-based
Provide the reading as a plain figure in %.

Q: Entry under review: O=C1CCC(N2Cc3c(SCCCCCCCN4CCN(C5CCN(c6ncc(C(=O)Nc7ccc(OC(F)(F)Cl)cc7)cc6-c6ccn[nH]6)CC5)CC4)cccc3C2=O)C(=O)N1 (stereo unspecified) . Reported Activity?
Result: 64.4

Q: Entry under review: O=C1CCC(N2Cc3c(SCCCN4CCN(C5CCN(c6ncc(C(=O)Nc7ccc(OC(F)(F)Cl)cc7)cc6-c6ccn[nH]6)CC5)CC4)cccc3C2=O)C(=O)N1 (stereo unspecified) . Reported Activity?
Result: 49.6

Q: Entry under review: O=C1CCC(N2Cc3c(SCCCCCCNc4ncc(C(=O)Nc5ccc(OC(F)(F)Cl)cc5)cc4-c4ccn[nH]4)cccc3C2=O)C(=O)N1 (stereo unspecified) . Reported Activity?
Result: -8.74

Q: Entry under review: O=C1CCC(N2Cc3c(OCCCCCCN4CCN(C5CCN(c6ncc(C(=O)Nc7ccc(OC(F)(F)Cl)cc7)cc6-c6ccn[nH]6)CC5)CC4)cccc3C2=O)C(=O)N1 (stereo unspecified) . Reported Activity?
Result: 67.9

Continuing:
Q: Entry under review: O=C1CCC(N2Cc3c(SCCCCCNc4ncc(C(=O)Nc5ccc(OC(F)(F)Cl)cc5)cc4-c4ccn[nH]4)cccc3C2=O)C(=O)N1 (stereo unspecified) . Reported Activity?
Result: 29.6

Q: Entry under review: O=C1CCC(N2Cc3c(SCCCCCNC4CCN(c5ncc(C(=O)Nc6ccc(OC(F)(F)Cl)cc6)cc5-c5ccn[nH]5)CC4)cccc3C2=O)C(=O)N1 (stereo unspecified) . Reported Activity?
Result: 29.7
